Taken from patent US6642222B2.

- System: Landrace Pig Bladder
- run.description: Functional potassium channel opening activity in isolated bladder strips (field-stimulated twitch)
- conditions: Sus scrofa, negative logarithm of ED50; read-out: pD2 (converted)
reported.property: EC50 (nM)

- molecule: "Cc1ccc(C2C3=C(COCC3=O)NC3=C2C(=O)OC3)cc1I (single isomer, unassigned) [Example 82]"
  test.target: "Landrace Pig Bladder"
  EC50 [nM]: 31.6

a: Cl.O=C1CCC2=C1C(c1ccc(F)c(Br)c1)C1=C(CNCC1=O)N2 (single isomer, unassigned; (+)) [Example 6, Hydrochloride]
b: Cc1ccc([C@H]2C3=C(COCC3=O)NC3=C2C(=O)OC3)cc1Br (single isomer, unassigned) [Example 81]
Challenge: # returns the entry with the larger EC50; inputs a and b Label of pick, please.
Response given: a
(a: 3980 nM, b: 398 nM)
